Test System: Hck (UniProt P08631)
Sequence (P08631 whole entry, looked up): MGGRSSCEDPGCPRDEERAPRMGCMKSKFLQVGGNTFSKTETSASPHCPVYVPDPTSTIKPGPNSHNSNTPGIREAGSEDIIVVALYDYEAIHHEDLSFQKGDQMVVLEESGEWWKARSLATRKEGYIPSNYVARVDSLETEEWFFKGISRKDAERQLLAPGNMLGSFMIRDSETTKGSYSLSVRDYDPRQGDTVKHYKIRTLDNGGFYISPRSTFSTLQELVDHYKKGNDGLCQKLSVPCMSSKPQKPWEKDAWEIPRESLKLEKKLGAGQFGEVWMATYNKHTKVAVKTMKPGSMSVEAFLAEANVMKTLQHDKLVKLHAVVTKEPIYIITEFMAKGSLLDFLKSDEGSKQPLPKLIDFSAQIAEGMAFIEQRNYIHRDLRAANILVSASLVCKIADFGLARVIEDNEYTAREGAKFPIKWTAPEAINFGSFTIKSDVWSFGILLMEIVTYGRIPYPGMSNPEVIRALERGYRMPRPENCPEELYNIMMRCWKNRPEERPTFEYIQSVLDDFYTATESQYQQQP
Test Method Notes: phosphorylation enrichment, bacterial display (enrichment ratio); higher = better substrate or ligand; peptides without Tyr show the background;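 further: 11-residue human phosphosite peptides and single-mutation variants displayed on the E. coli surface, counted by deep sequencing, each peptide's frequency after selection divided by its frequency in the unselected input library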;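 further: frequency after pTyr selection over input frequency; kinase dosed for 20-30% of maximal phosphorylation in three min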
Short version: phosphorylation enrichment at least 0.6 is Criterion met, less is Criterion not met.

Ask: Does phosphorylation enrichment meet or surpass 0.6 for SLLLSYYLIKW [NUP160_Y773_P768S] ?
Reply: Criterion not met

Ask: Dear colleague, could you confirm whether SDVCMYRKNIY [SYNE2_Y570] has phosphorylation enrichment at or above 0.6?
Reply: Criterion not met

Ask: Say whether EPAVLYNLKER [MYH7_Y103_D107E] shows phosphorylation enrichment of 0.6 or more.
Reply: Criterion met

Ask: hey, is phosphorylation enrichment for this one >= 0.6? VPVPGYTKLPE [SPRR3_Y146]
Reply: Criterion not met

Ask: Exam item: decide whether the reported phosphorylation enrichment for RPSRWYQFRVA [ANOS1_Y259] is at least 0.6.
Reply: Criterion met

Ask: Please check the record DEEDFYQGSME [ASCC1_Y36] and state if its phosphorylation enrichment is at or above 0.6.
Reply: Criterion met

Ask: Check this sequence for phosphorylation enrichment at or above 0.6: HNVPICEGFAL [ACTC1_Y168_Y168C_YF]
Reply: Criterion met

Ask: Entry SPPILYSFYLD [FCRL6_Y239] : is its phosphorylation enrichment no less than 0.6?
Reply: Criterion met

Ask: Say whether RLLVVYPWTQR [HBB_Y36] shows phosphorylation enrichment of 0.6 or more.
Reply: Criterion not met

Ask: Kindly determine if phosphorylation enrichment recorded for PLFKICVAELI [MRPL28_Y230_Y230C] is above or exactly 0.6.
Reply: Criterion met

Ask: phosphorylation enrichment >= 0.6 for INSLKYAFNIS [EIF2B5_Y583_YF] ?
Reply: Criterion not met

Ask: # bool: phosphorylation enrichment of EWQQTYTFDSG [JUP_Y20_YF] >= 0.6
Reply: Criterion met

Ask: Assess whether reported phosphorylation enrichment for VEDQFYCVDCF [FHL1_Y208_YF] sits at 0.6 or higher.
Reply: Criterion met

Ask: Would you say MSRDVYSTDCY [NTRK2_Y702_Y706C] shows phosphorylation enrichment at minimum 0.6?
Reply: Criterion met

Ask: Identify whether the reported phosphorylation enrichment of the following sequence is 0.6 or greater: KDFNKYVAYIE [KDM4B_Y31]
Reply: Criterion not met

Ask: Check the entry QMVGKYASSYM [AVPR2_Y124_M123K] : does phosphorylation enrichment equal or exceed 0.6?
Reply: Criterion not met

Ask: Does the reported phosphorylation enrichment for CTTIHYNHMCN [TP53_Y234_Y236H] fall at or above the 0.6 mark?
Reply: Criterion not met

Ask: Determine whether measured phosphorylation enrichment meets or exceeds 0.6 for SLNEGYARDFD [FBP1_Y216]
Reply: Criterion not met

Ask: In plain terms: is recorded phosphorylation enrichment at least 0.6 for CDIARYIVSQL [MAST2_Y461_P459A] ?
Reply: Criterion not met

Ask: Identify whether the reported phosphorylation enrichment of the following sequence is 0.6 or greater: MEVGQYIFVKC [CYBB_Y324]
Reply: Criterion not met

Ask: Hello, I need to know if PLDGEYFILQI [TP53_Y327_T329I] has measured phosphorylation enrichment not below 0.6. Thanks!
Reply: Criterion met

Ask: For this sequence, is measured phosphorylation enrichment 0.6 or higher? GDFLSYREFHL [ERBIN_Y1107_S1112L_YF]
Reply: Criterion met

Ask: Could you verify whether the entry KNITEYCRDLI [RECQL_Y492] shows phosphorylation enrichment of no less than 0.6?
Reply: Criterion not met
